Kindly state z-score for each of the entries shown.
- assay_notes: HepG2 cell viability effects, profiling panel, calcein-AM fluorescence, 48 h, basal (AID 1164); further: test concentration not given here
- recorded_conditions: higher = more signal
Lab note: jot the number down without any unit.

**Q:** Which z-score reading was recorded for the compound CCOC(=O)[C@H](CC(C)C)NC(=O)CCC1CC(OC(=O)NCCc2ccc(F)cc2)CC2(CCCC(COC(=O)NCC3CCCCC3)O2)O1 (some centres not stated) ?
**A:** -0.843

**Q:** Lookup CCOC(=O)NN=C1C[C@@H](O)[C@@H](O)[C@@H]2[C@@H]3C(=O)N(c4ccc(F)cc4F)C(=O)[C@@H]3CC[C@@H]12
**A:** -1.12

**Q:** Entry C[C@@H]1C=CCC(=O)OC[C@H]2O[C@@H](C=C[C@@H]2O)[C@H](C)C=CCC(=O)OC1 please
**A:** 1.37

**Q:** Record: CC(C)[C@@H](OCc1ccccc1)[C@H](C)C=NOC[C@@H](O)COCc1ccco1
**A:** -0.893

**Q:** Can you handle COC(=O)[C@@H]1CC[C@H](C)[C@@H](c2ccc(C)cc2)N1C(=O)c1ccc(C=NOC[C@@H](C)[C@H](OCc2ccccc2)C(C)C)cc1 next?
**A:** 2.13

**Q:** Queued: Cc1cc2c(nc1C)CCCCN2CC(C)ON=C1[C@H]2CCn3c(=O)n(-c4ccccc4)c(=O)n3[C@H]2[C@H](O)[C@@H]2O[C@H]12 (some centres not stated)
**A:** 0.305

**Q:** Quick one: CO[C@@H]1COC(=O)CC=C[C@@H](C)[C@@H]2C=C[C@H](O)[C@@H](COC(=O)CC=C[C@H]1C)O2
**A:** 0.764
